test target: Tyrosine-protein kinase ZAP-70 (Homo sapiens, UniProt P43403)
Sequence (P43403 whole entry): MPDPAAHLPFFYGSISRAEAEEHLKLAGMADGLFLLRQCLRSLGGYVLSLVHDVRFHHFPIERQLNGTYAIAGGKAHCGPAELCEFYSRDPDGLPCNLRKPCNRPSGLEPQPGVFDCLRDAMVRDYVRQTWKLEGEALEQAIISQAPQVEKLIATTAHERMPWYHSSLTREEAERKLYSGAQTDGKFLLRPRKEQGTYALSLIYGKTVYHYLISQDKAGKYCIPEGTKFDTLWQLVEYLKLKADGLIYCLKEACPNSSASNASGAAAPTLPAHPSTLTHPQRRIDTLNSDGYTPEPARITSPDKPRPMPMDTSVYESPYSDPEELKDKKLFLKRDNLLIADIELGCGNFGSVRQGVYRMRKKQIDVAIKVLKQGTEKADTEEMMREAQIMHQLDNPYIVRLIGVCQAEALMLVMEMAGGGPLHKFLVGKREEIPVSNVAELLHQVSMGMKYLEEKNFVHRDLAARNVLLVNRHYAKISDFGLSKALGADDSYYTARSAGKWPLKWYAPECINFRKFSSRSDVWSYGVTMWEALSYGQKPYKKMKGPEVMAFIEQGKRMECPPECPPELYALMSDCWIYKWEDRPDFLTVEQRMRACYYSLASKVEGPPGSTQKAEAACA
outcome measure: IC50 (nM)
Enter your answer as a number in nM; do not include the unit.

Exam item: Request: IC50, test system Tyrosine-protein kinase ZAP-70 (Homo sapiens, UniProt P43403), entry O=C1NCc2c1c1c3ccccc3n3c1c1c2c2ccccc2n1C[C@@H](O)[C@@H](O)C3 (relative stereo)
Marked response: 200

====

Listed here are compounds together with their documented pIC50.
test target: Tyrosine-protein kinase Lck (Homo sapiens, UniProt P06239)
Sequence (P06239 whole entry): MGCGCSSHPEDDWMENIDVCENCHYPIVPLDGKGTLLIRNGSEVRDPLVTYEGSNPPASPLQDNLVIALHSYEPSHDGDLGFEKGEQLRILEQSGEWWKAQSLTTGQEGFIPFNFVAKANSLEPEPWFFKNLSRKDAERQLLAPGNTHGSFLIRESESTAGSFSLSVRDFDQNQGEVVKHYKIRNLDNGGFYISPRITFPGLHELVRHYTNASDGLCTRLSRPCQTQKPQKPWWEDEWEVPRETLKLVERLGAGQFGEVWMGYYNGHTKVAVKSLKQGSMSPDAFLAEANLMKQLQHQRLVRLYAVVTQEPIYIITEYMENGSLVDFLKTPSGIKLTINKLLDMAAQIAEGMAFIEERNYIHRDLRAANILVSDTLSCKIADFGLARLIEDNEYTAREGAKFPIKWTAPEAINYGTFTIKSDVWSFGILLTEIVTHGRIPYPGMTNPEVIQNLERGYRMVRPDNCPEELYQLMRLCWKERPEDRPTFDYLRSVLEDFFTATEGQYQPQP
test description: Inhibition of LCK-mediated inhibition of biotinylated substrate phosphorylation
pIC50: −log10 of the molar value.

>>> df
                                   compound  recorded_value
0  CC(=O)/C1=C/Cn2c3ccccc3c3c4c(c5c6ccccc6n(c5c32)C1)C(=O)NC4=O          < 6.00

Here's the next entry for you.
Exam item: Entry O=C1NCc2c1c1c3ccccc3n3c1c1c2c2ccccc2n1C[C@@H](O)[C@@H](O)C3 (relative stereo) has what pIC50?
Marked response: < 6.00

====

Measurement record for Tyrosine-protein kinase JAK3 (Homo sapiens, UniProt P52333); quantity recorded: pIC50.
Entry type: numeric. Quantity: pIC50, the -log10 of concentration in molar units.

Reference set, count: 7
>>> print(df.to_string())
                                   compound  outcome_measure  recorded_value
0  O=C1NCc2c1c1c3ccccc3[nH]c1c1[nH]c3ccccc3c21            pIC50            7.21
1  O=C1NCc2c1c1c3ccccc3n3c1c1c2c2ccccc2n1C/C=C\C3            pIC50            7.41
2  O=C1NC(=O)c2c1c1c3ccccc3n3c1c1c2c2ccccc2n1C[C@H](O)[C@H](O)C3            pIC50            8.52
3  O=C1NC(=O)c2c1c1c3ccccc3n3c1c1c2c2ccccc2n1C[C@@H](O)[C@@H](O)CC3 (relative stereo)            pIC50            8.05
4  CN(C)C1CCN(C(=O)[C@]2(O)Cn3c4ccccc4c4c5c(c6c7ccccc7n(c6c43)C[C@H]2O)C(=O)NC5=O)C1 (stereo partly drawn)            pIC50            7.82
5  O=C1NCc2c1c1c3ccccc3n3c1c1c2c2ccccc2n1CC[C@@H](O)[C@@H](O)CC3 (relative stereo)            pIC50            7.92
6  CC(=O)/C1=C/Cn2c3ccccc3c3c4c(c5c6ccccc6n(c5c32)C1)C(=O)NC4=O            pIC50            8.15

Exam item: Request: pIC50, test system Tyrosine-protein kinase JAK3 (Homo sapiens, UniProt P52333), entry O=C1NC(=O)c2c1c1c3ccccc3n3c1c1c2c2ccccc2n1C[C@@](O)(C(=O)O)[C@H](O)C3 (relative stereo)
Marked response: 8.05

Data credit: ChEMBL document CHEMBL1152924
